target_system: Olfr177 (Mus musculus, UniProt E9Q7W1)
Sequence (E9Q7W1 entry or part of it): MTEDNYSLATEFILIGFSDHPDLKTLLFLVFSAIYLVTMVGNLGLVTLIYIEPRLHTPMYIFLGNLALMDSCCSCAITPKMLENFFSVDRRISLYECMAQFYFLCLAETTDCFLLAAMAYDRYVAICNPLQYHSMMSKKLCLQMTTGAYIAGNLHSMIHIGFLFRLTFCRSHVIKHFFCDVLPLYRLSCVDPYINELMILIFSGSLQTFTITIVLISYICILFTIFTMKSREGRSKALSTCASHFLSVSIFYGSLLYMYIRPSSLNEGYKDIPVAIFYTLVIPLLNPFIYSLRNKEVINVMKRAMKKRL
assay_details: cAMP-dependent dual luciferase reporter assay, Olfr177 expressed in HEK293T cells
test_conditions: HEK293T cells expressing Olfr177, Firefly:Renilla ratio, 4 h, dose response of at least 6 concentrations; read-out: EC50 for activation of Olfr177
The entries below come with measured EC50 values attached.
Numeric answer only, unit µM assumed.

CCc1ncc(C)nc1C	1070

// switching to the query molecule
Query :: What value of measured EC50 is listed for CCc1nccnc1C ?
Result :: 1670

// data source = paper PMC7573564
